molecular target: T1, cynomolgus CD40 extracellular domain (ECD) (cynomolgus); test: SPR (IBIS MX96), antibody captured, monovalent CD40 ECD in solution
T1 construct: extracellular domain; also called Cynomolgus CD40 ECD
Record form. Attribute: koff. Fill in for each entry.

Q) Dear colleague, I am looking for the recorded koff of the following binder: antibody 15833 (antibody, human IgG1, kappa, L234A L235A, V domains shown, Fully human IgG1-LALA / kappa) VH: QVQLVESGGGVVQPGRSLRLSCAASGFTFSNYAMHWVRQAPGKGLEWVALISFDGSYKYYADSVKGRFTISRDNSKNTLYLQMNSLRAEDTAVYYCVKDAGYSSSWFFDYWGQGTLVTVSS VL: DIQMTQSPSSVSASVGDRVTITCRASQDISSWLAWYQQKPGKAPKLLIYAASSLQSGVPSRFSGSGSGTDFTLTISSLQPEDFGNYYCQQANSFPWTFGQGTKVEIKR
A) 0.00012 s⁻¹

Q) Dear colleague, I am looking for the recorded koff of the following binder: antibody 16040 (antibody, human IgG1, kappa, L234A L235A, V domains shown, Fully human IgG1-LALA / kappa) VH: QVQLVESGGGVVQPGRSLRLSCAASGFTFSIYGMHWVRQAPGKGLEWVAVISYDGSNKYYADSVKGRFTISRDNSKNTLYLQMNSLRAEDTAVYYCAAGNWFDPWGQGTLVTVSS VL: DIQLTQSPSFLSASVGDRVTITCRASQGISSYLAWYQQKPGKAPKLLIYAASTLQSGVPSRFSGSGSGTEFTLTISSLQPEDFATYYCQQLNRYPLTFGGGTKVEIKR
A) 0.0013 s⁻¹

Q) Dear colleague, I am looking for the recorded koff of the following binder: antibody 15948 (antibody, human IgG1, kappa, L234A L235A, V domains shown, Fully human IgG1-LALA / kappa) VH: QVQLVESGGGVVQPGRSLRLSCAASGFTFSIYGMHWVRQAPGKGLEWVAVISYDGSNKYYADSVKGRFTISRDNSKNTLYLQMNSLRAEDTAVYYCAKDPDYYGSGSYYPDWGQGTLVTVSS VL: DIQLTQSPSFLSASVGDRVTITCRASQGISSYLAWYQQKPGKAPKLLIYAASTLQSGVPSRFSGSGSGTEFTLTISSLQPEDFATYYCQQVKSYPLTFGGGTKVEIKR
A) 0.0021 s⁻¹

Q) Dear colleague, I am looking for the recorded koff of the following binder: antibody 16154 (antibody, human IgG1, kappa, L234A L235A, V domains shown, Fully human IgG1-LALA / kappa) VH: EVQLVESGGGLVQPGGSLRLSCAASGFTFTSYWMSWVRQAPGKGLEWVANIKQDGSEKYYVDSVKGRFTISRDNAKNSLYLQMNSLRAEDTAVYYCARGPVAGPYWYFDLWGRGTLVTVSS VL: AIQMTQSPSSLSASVGDRVTITCRASQGIRNDLGWYQQKPGKAPKLLIYAASSLQSGVPSRFSGSGSGTDFTLTISSLQPEDFATYYCLQDYHYPLTFGGGTKVEIKR
A) 0.00051 s⁻¹

Sourced from patent US20210214454A1
